- measurement_protocol: in vivo
- stated_conditions: male, beagle, dog, po, 100 mg/kg, Cmax
observed_property: Cmax (ng/mL)
Numbers only; they are read as ng/mL.

**Q:** Which Cmax is listed for "NCc1cc(Oc2cccc(C(=O)N3C[C@@H](O)[C@H](F)C3)c2)nc(C(F)(F)F)c1" ?
**A:** 27000

###

- measurement_protocol: in vivo
- stated_conditions: male, beagle, dog, po, 100 mg/kg, AUC(0-t hr)
observed_property: AUC(0-t) (ng·h/mL)
Just the number please, in ng·h/mL, no unit attached.

**Q:** Would you kindly share the measured AUC(0-t) for NCc1cc(Oc2cccc(C(=O)N3C[C@@H](O)[C@H](F)C3)c2)nc(C(F)(F)F)c1 [Compound 1] ?
**A:** 85000
